logP for assorted compounds
API note: the answer field is a bare number with no unit suffix.

Reference set (2 entries):
CCCc1nnc(-c2ccc(N)cc2)s1
2.53
Cc1noc(-c2ccc(N)cc2)n1
1.89

## Task Field request: logP | item: `Nc1ccc(-c2nnc(-c3ccccc3)o2)cc1`
## Result 2.91

## Task Query (compound): `CCc1noc(-c2ccc(N)cc2)n1` ; field requested: logP
## Result 2.22

## Task Look at this compound and give its reported logP. `Cc1nnc(-c2ccc(N)cc2)o1`
## Result 1.63

## Task What value of logP has been recorded for this entry: `CC(C)(C)c1nnc(-c2ccc(N)cc2)o1`
## Result 2.53

## Task Using the record for `CCc1nsc(-c2ccc(N)cc2)n1` , report its logP.
## Result 2.39

## Task GET /values?readout=logP&item= `CCc1nc(-c2ccc(N)cc2)no1`
## Result 2.13
